Assay: blockers of RIG-like receptor reporter activation – cell-based, Sendai virus stimulus, luciferase, 10K MLSCN set, TLR/RLR signaling modifier project, primary screen (AID 602276);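 note: firefly luciferase from ISG56 promoter only with Renilla not read in this screen; 0% = Sendai virus plus DMSO and 100% = medium plus DMSO without virus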
Settings: HEK293 RL24 IRF3 luciferase reporter, at 10 µM, active compounds read high

molecule	inhibition [%]
CC(=O)[C@H]1CC[C@H]2[C@@H]3CC[C@H]4C[C@H](O)CC[C@]4(C)[C@H]3C(=O)C[C@]12C	10.2
CCCNS(=O)(=O)c1ccc(OCC(=O)N2CCN(Cc3ccccc3)CC2)cc1	-3.33
NC(=O)CSP(=O)(c1ccccc1)c1ccccc1	6.33
O=C(c1ccc2nc3ccc(Cl)cc3c(=O)n2c1)N1CCC2(CC1)OCCO2	-8.72
C[C@H]1OC[C@@H](C[N+](C)(C)C)O1	1.89
CC(C)(C)P(=O)(c1ccncc1)N1CCCC1 (stereo unspecified)	14.9
Oc1ccc(C2NCc3ccccc3-n3cccc32)cc1Cl (stereo unspecified)	4.87
CN(C)c1cc(N)c2c(n1)CCC2 (tested in a mixture with another compound)	11.4
O=c1[nH]c(=O)n(Cc2ccco2)c(O)c1C=NCCCn1ccnc1	8.16
Cc1ccnc(-n2c(-c3ccco3)nc3ccccc3c2=O)c1	6.03
CC1=C(C(=O)N2CCC3(CC2)OCCO3)C2(CCC(C)CC2)OC1=O (stereo unspecified)	7.64
